Source of measurements: patent US5342843A

# Tested on: guinea pig trachea
# Protocol Text: Passive Schultz-Dale reaction (relaxation of ovalbumin-induced contraction of passively sensitized trachea)
# Set-up: species or system male Hartley guinea pigs
# Test Conditions: Cavia porcellus; concentration causing 50% relaxation; ovalbumin 1 μg/ml, cumulative addition; isolated trachea, 37° C.
pIC50: −log10 of the molar value.
The label depends only on pIC50: met if it is at least 6, not met if it is smaller.

Compound | System | Class Name
CCn1c(=O)c2c(ncn2C)c2sccc21 [Compound 17] | guinea pig trachea | not met
CCCCn1c(=O)c2[nH]cnc2c2ccsc21 [Compound 31] | guinea pig trachea | met
CCCCn1c(=O)c2c(ncn2Cc2ccccc2)c2ccsc21 [Compound 33] | guinea pig trachea | not met
CCCCn1c(=O)c2ncn(C)c2c2ccsc21 [Compound 34] | guinea pig trachea | not met
CCCn1c(=O)c2ncn(C)c2c2sccc21 [Compound 14] | guinea pig trachea | not met

====

pIC50 for assorted molecules
# System: guinea pig trachea
# Protocol Text: Passive Schultz-Dale reaction (relaxation of ovalbumin-induced contraction of passively sensitized trachea)
# Parameters: species or system male Hartley guinea pigs
# Test Conditions: Cavia porcellus; concentration causing 50% relaxation; ovalbumin 1 μg/ml, cumulative addition; isolated trachea, 37° C.
pIC50: −log10 of the molar value.

Record Smiles | pIC50
CCn1c(=O)c2ncn(C)c2c2sccc21 | 5.00
CC(C)n1c(=O)c2ncn(C)c2c2sccc21 | 5.14
CCn1c(=O)c2ncn(Cc3ccccc3)c2c2sccc21 | 5.47
CCCn1c(=O)c2c(ncn2C)c2sccc21 | 5.53
CCCn1c(=O)c2ncn(Cc3ccccc3)c2c2ccsc21 | 5.62
CCCCn1c(=O)c2ncn(Cc3ccccc3)c2c2ccsc21 | 5.22
CC(C)n1c(=O)c2c(ncn2C)c2sccc21 | 5.45
CCCCn1c(=O)c2c(ncn2C)c2sccc21 | 4.91
CCCCn1c(=O)c2[nH]cnc2c2sccc21 | 5.33
CCCCn1c(=O)c2c(ncn2C)c2ccsc21 | 6.07
CCn1c(=O)c2[nH]cnc2c2sccc21 | 6.18
CC(C)n1c(=O)c2[nH]cnc2c2sccc21 | 5.57
